- protocol-conditions: in sec-butanol, 298.2 K
quantity: solubility (mole fraction)
// keep it numeric: no unit symbol after the value

Problem: Read the entry CC1=CC(=O)C(C(C)C)=CC1=O and write its reported solubility (mole fraction).
Solution: 0.0614

* * *

- protocol-conditions: in DMSO, 318.2 K
quantity: solubility (mole fraction)
Give the value as a plain number.

Problem: Check the records and state solubility (mole fraction) for CC1=CC(=O)C(C(C)C)=CC1=O
Solution: 0.045

* * *

- protocol-conditions: in propylene glycol, 308.2 K
quantity: solubility (mole fraction)
Form field (numeric): enter value without unit.

Problem: Please list solubility (mole fraction) recorded for the compound CC1=CC(=O)C(C(C)C)=CC1=O
Solution: 0.00891

* * *

- protocol-conditions: in sec-butanol, 308.2 K
quantity: solubility (mole fraction)
Lab note: record just the number, no unit beside it.

Problem: Annotate the compound CC1=CC(=O)C(C(C)C)=CC1=O with its measured solubility (mole fraction).
Solution: 0.0774

* * *

- protocol-conditions: in propylene glycol, 313.2 K
quantity: solubility (mole fraction)
API doc: respond with a numeric literal and nothing else, no unit.

Problem: Note down solubility (mole fraction) recorded for CC1=CC(=O)C(C(C)C)=CC1=O
Solution: 0.0116

* * *

- protocol-conditions: in methanol, 298.2 K
quantity: solubility (mole fraction)
Respond numerically, and do not add a unit to the figure.

Problem: Given CC1=CC(=O)C(C(C)C)=CC1=O , respond with its solubility (mole fraction).
Solution: 0.01

* * *

- protocol-conditions: in sec-butanol, 303.2 K
quantity: solubility (mole fraction)
Answer using only a numeral; do not append any unit.

Problem: Specify reported solubility (mole fraction) for the compound shown: CC1=CC(=O)C(C(C)C)=CC1=O
Solution: 0.07

* * *

- protocol-conditions: in methanol, 303.2 K
quantity: solubility (mole fraction)
Returns: the value as a bare number; no unit string appended.

Problem: Identify solubility (mole fraction) associated with the compound CC1=CC(=O)C(C(C)C)=CC1=O
Solution: 0.0116

* * *

- protocol-conditions: in ethyl acetate, 303.2 K
quantity: solubility (mole fraction)
Answer with the value's number alone.

Problem: Write down solubility (mole fraction) measured for item CC1=CC(=O)C(C(C)C)=CC1=O
Solution: 0.0347

* * *

- protocol-conditions: in DMSO, 308.2 K
quantity: solubility (mole fraction)
Reply: number alone, nothing else.

Problem: Identify solubility (mole fraction) associated with the molecule CC1=CC(=O)C(C(C)C)=CC1=O
Solution: 0.0358

* * *

- protocol-conditions: in PEG-400, 318.2 K
quantity: solubility (mole fraction)

Problem: Identify the reported solubility (mole fraction) for the following entry. CC1=CC(=O)C(C(C)C)=CC1=O
Solution: 0.0744

* * *

- protocol-conditions: in n-butanol, 308.2 K
quantity: solubility (mole fraction)
I'd appreciate a reply containing only the number, no unit.

Problem: Input CC1=CC(=O)C(C(C)C)=CC1=O , output reported solubility (mole fraction).
Solution: 0.0744

* * *

- protocol-conditions: in methanol, 308.2 K
quantity: solubility (mole fraction)
Please respond with just the number, no unit label.

Problem: Report solubility (mole fraction), nothing else, for this molecule: CC1=CC(=O)C(C(C)C)=CC1=O
Solution: 0.0137

* * *

- protocol-conditions: in DMSO, 298.2 K
quantity: solubility (mole fraction)
Reply: number alone, nothing else.

Problem: Indicate the recorded solubility (mole fraction) value for this compound: CC1=CC(=O)C(C(C)C)=CC1=O
Solution: 0.0278

The origin of these recorded values is BigSolDB 2.1.
